molecular target: T1, hMSLN-His-Avi (human, UniProt Q13421 296-598, single biotin on the Avi tag in the biotinylated form); assay: SPR, hMSLN-His-Avi in solution
T1 construct: Monomeric; also called human MSLN-His-Avi; hMSLN-Avi-His
T1 sequence (Q13421 other isoform, or with tags, fused parts or gaps): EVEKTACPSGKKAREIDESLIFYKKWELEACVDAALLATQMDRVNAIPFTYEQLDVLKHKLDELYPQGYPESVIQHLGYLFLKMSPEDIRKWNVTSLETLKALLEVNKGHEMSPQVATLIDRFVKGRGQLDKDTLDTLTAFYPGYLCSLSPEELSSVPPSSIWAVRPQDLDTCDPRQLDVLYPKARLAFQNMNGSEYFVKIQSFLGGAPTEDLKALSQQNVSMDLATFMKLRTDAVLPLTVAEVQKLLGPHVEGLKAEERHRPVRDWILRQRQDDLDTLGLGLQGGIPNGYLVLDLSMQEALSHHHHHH
pKd: −log10 of the molar value.
# maps each entry to its pKd
Observation type: pKd

[[record]]
binder = "FS22-172-003-AA/FS28-256-271 (bispecific antibody, human IgG1, kappa, L234A L235A, V domains shown, IgG1 mAb^2 with LALA; also called anti-human CD137/MSLN mAb^2) VH: EVQLLESGGGLVQPGGSLRLSCAASGFTFTHTYMSWVRQAPGKGLEWVSAISPTYSTTNYADSVKGRFTISRDNNKNTLYLQMNSLRAEDTAVYYCARYNAYHAALDYWGQGTLVTVSS VL: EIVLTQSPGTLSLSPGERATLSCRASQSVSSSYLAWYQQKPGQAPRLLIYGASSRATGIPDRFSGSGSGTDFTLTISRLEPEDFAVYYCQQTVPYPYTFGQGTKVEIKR"
observation_type = "pKd"
reported = 7.74

[[record]]
binder = "FS22-172-003-AA/FS28-256-273 (bispecific antibody, human IgG1, kappa, L234A L235A, V domains shown, IgG1 mAb^2 with LALA) VH: EVQLLESGGGLVQPGGSLRLSCAASGFTFTHTYMSWVRQAPGKGLEWVSSISPTYSTTNYADSVKGRFTISRDNNKNTLYLQMNSLRAEDTAVYYCARYNAYHAALDYWGQGTLVTVSS VL: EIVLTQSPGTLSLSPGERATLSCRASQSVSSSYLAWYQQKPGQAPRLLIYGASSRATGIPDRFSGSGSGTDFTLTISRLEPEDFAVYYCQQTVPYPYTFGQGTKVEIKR"
observation_type = "pKd"
reported = 8.13

[[record]]
binder = "FS28-256-274 (in CD137 mAb^2 format) (bispecific antibody, V domains shown, Position 55 is IMGT numbering) VH: EVQLLESGGGLVQPGGSLRLSCAASGFTFTHTYMSWVRQAPGKGLEWVSTISPTYSTTNYADSVKGRFTISRDNNKNTLYLQMNSLRAEDTAVYYCARYNAYHAALDYWGQGTLVTVSS VL: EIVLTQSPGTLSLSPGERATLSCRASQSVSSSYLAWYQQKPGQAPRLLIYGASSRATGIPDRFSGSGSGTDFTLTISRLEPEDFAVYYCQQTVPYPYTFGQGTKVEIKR"
observation_type = "pKd"
reported = 7.25

[[record]]
binder = "FS22-172-003-AA/FS28-256-272 (bispecific antibody, human IgG1, kappa, L234A L235A, V domains shown, IgG1 mAb^2 with LALA) VH: EVQLLESGGGLVQPGGSLRLSCAASGFTFTHTYMSWVRQAPGKGLEWVSHISPTYSTTNYADSVKGRFTISRDNNKNTLYLQMNSLRAEDTAVYYCARYNAYHAALDYWGQGTLVTVSS VL: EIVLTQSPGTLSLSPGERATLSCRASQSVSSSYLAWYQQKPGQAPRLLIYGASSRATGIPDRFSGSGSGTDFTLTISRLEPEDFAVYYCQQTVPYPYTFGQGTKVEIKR"
observation_type = "pKd"
reported = 8.12

